# key: entry, value: Neutralizing activity (%) at 250 µg/ml
# assay.system: Influenza virus A/Panama/2007/1999 (H3N2) (Influenza A virus A/Panama/2007/1999 (H3N2))
# assay.protocol: cell-based or functional assay
Answer format: numeric, % implied, no suffix.

Below are worked cases with known answers.
binder="Group 44 representative clone F081-008, Fab-PP-type antibody (Fab, V domains shown) VH: QVQLVQSGAEVKKPGSSVKVSCKASGGTFSSFSTYTISWVRQAPGQGLEWMGRSIPLLGITNYAQKFQGRVTITADISTSTAYMELSSLRSEDTAVYYCARYQSSDYYNSEYFQHWGQGTLVTVSS VL: EIVLTQSPGTLSLSLGERVTLSCRASQNVGTNYLAWYQQKPGQAPRLLIYGASSRATGVPDRFSGSGSGTDFTLTISRLAPEDFAVYYCQQYSSSPLTFGGGTKLEIK" result_number=15.8
binder="Group 59 representative clone F083-351, Fab-PP-type antibody (Fab, V domains shown) VH: QVQLVQSGADVKKAGSSVKVSCKASGRTFGNYAISWVRQAPGQGLEWMGGITPIFGAANYAQKFQGRVTISADLSTRMVYMDLSSLRSDDTAFYYCAGHPMYHYGSAMDYWGQGTLVTVSS VL: QSVLTQPPSASGTPGQRVSISCFGSRSNVGSSSVNWYQQLPGRAPKLLIQRNDQRPSGVPDRFSGSKSGTSASLAISGLQSDDESTYYCAAWDDSVKSVVFGGGTQLTVLG" result_number=-6.6

Specify measured Neutralizing activity (%) at 250 µg/ml for Group 47 representative clone F083-308, Fab-PP-type antibody (Fab, V domains shown) VH: QVQLVQSGAEVKKPGSSVKVSCKASGGIFRSHAISWVRQAPGQGLEWMGGIIAIFGTTHYAQQFQGRVTITADESTSTVYMELSTLRSEDTAVYYCARGPNYFESYFDNWGQGTLVTVSS VL: EIVLTQSPATLSLSPGERATLSCRASQTISSYLAWYQQKPGQAPRLLIYGASNRATGIPARFSGSGSGTDFTLTINSLEPEDFAVYYCQQRSSWPPITFGQGTRLEIK . -6.8

Hey, just so you know, these numbers are from patent US20160200799A1.
